- assay-details: Toxicity liver stage against HepG2, at 10uM
- Format: cell-based
- Parameters: test concentration 10 uM, cell line HepG2-A16-CD81EGFP
- study-conditions: human, HepG2-A16-CD81EGFP cells; read-out: INHIBITION
recorded-endpoint: cytotoxicity at 10 µM (%)
Give bare numbers, in %.

Example entries begin here.
Brc1ccc(C2(NCc3noc(C4CC4)n3)CCC2)cc1; 13.3
O=c1[nH]c2nc(N3CCCC3)ncc2c(=O)n1-c1cccc(F)c1; 8.24
CS(=O)(=O)N1CCc2sc(C(=O)NCc3ccncc3)cc21; 2.93
CC(NCc1cccc(NC(=O)C2CCCCC2)c1)c1cnn(C)c1 (stereo not drawn); -0.26
CN(CC(=O)N1CCCC1c1cnn(C)c1)Cc1ccccc1 (stereo not drawn); -4.38
CC(=O)N1CCN(C(=O)Nc2cnc3c(cnn3C(C)C)c2)CC1; -0.192
CCCNC(=O)CCC(=O)Nc1ccc(-n2cncn2)c(F)c1; 1.94
Cc1ccc(C(=O)Nc2cn[nH]c2)cc1; -8.83
CN1C[C@@H]2CN(C(=O)C3CCOC3)C[C@@H]2C1=O (stereo partly drawn); -127
CCOCC(=O)N1CCc2c(ncnc2N2CCOCC2)C1; -6.63

Provide each entry's cytotoxicity at 10 µM from the list below.
1. Cc1ccc(=O)n(CC2(O)CCN(Cc3c(F)cccc3F)CC2)n1
2. Cc1noc(C)c1CN1CCc2nn(C(C)C)c(=O)cc2C1
3. CC(OCC(F)(F)F)C(=O)N1CCCCC1 (stereo not drawn)
4. CCOCCN1CCCC(c2cc(C(N)=O)[nH]n2)C1 (stereo not drawn)
5. O=C(c1cc(-c2ccco2)nc2c(Cl)cccc12)N1C[C@H]2CNC[C@H]2C1

Output:
[-17.6, -8.87, -3.45, 3.78, -4.23]

---

- assay-details: Toxicity liver stage against HepG2, at 10uM
- Assay type: cell-based
- Set-up: test concentration 10 uM, cell line HepG2-A16-CD81EGFP
- study-conditions: human, HepG2-A16-CD81EGFP cells; read-out: INHIBITION
recorded-endpoint: cytotoxicity at 10 µM (%)
One number for each entry, in %.

CCS(=O)(=O)N1CCC2(CC1)CC1(CCN(CCOC)CC1)C(=O)N2C; 0.503

Provide each entry's cytotoxicity at 10 µM from the list below.
1. CC(C)(C)c1cc(CN2CCOC(CN)C2)n[nH]1 (stereo unspecified)
2. Fc1cnc(N2CCO[C@H]3[C@H](OCC4CCOCC4)CC[C@@H]32)nc1
3. CC(O)CN1CCN(C(=O)c2ccn(-c3ccccc3Cl)n2)CC1 (stereo unspecified)
4. CC1CCc2nc(O)c(C(=O)NCc3ccccn3)cc2C1 (stereo unspecified)
5. COc1ccc(CN2CCOC[C@H]2c2nc(-c3ccncc3)c[nH]2)cc1

Output:
1: -12.1; 2: 10.7; 3: -11.6; 4: -2.99; 5: -0.588

---

- assay-details: Toxicity liver stage against HepG2, at 10uM
- Type: cell-based
- Set-up: test concentration 10 uM, cell line HepG2-A16-CD81EGFP
- study-conditions: human, HepG2-A16-CD81EGFP cells; read-out: INHIBITION
recorded-endpoint: cytotoxicity at 10 µM (%)
One number for each entry, in %.

Nc1ncc(CN2C[C@H](C3CC3)[C@@H](N)C2)cn1; -44.6

Provide each entry's cytotoxicity at 10 µM from the list below.
1. COc1cc(C(=O)NS(=O)(=O)c2cc(Cl)sc2Cl)ccc1OC(F)F
2. CN(Cc1ncc[nH]1)CC(c1cccs1)N1CCOCC1 (stereo not given)
3. Cc1cncnc1C1CCN(CC2CC2)CC1
4. CC(=O)NCCNC(=O)c1cc(Br)c2c(c1)OCCO2
5. COc1ccc(COCC(O)CNC(=O)c2cc(C)cc(C)c2)cc1 (stereo not given)
6. Cc1noc(C2CCN(C(=O)CCNc3ncccn3)CC2)n1
7. CC(NC(=O)c1cccc(CN2CCN(C)CC2)c1)c1ccccn1 (stereo not given)

Output:
1. -13.9
2. -4.22
3. -1.06
4. -1.54
5. 0.385
6. -6.38
7. -13.5

Provide each entry's cytotoxicity at 10 µM from the list below.
1. CCCn1nnnc1CN(c1ccc(C)cc1)C(C)C
2. O=C1CCCC2(CCN(C(=O)c3cnccn3)CC2)N1
3. CCC(c1ccccc1)N1CCN(CCO)CC1 (stereo not given)
4. CN1CCCC(CCC(=O)NCCCn2ncc3ccccc32)C1 (stereo not given)
5. CC(C)C(NC(=O)Cc1ccccc1)C(=O)NCc1ccc(O)nc1 (stereo not given)
6. O=c1[nH]c2c(c(=O)n1C1CCCCC1)CCC2Nc1ccccc1 (stereo not given)

Output:
1. 4.15
2. -12.9
3. -1.19
4. 2.39
5. 0.833
6. 0.795

---

Give cytotoxicity at 10 µM for every item shown.
- assay-details: Toxicity liver stage against HepG2, at 10uM
- Assay type: cell-based
- Set-up: test concentration 10 uM, cell line HepG2-A16-CD81EGFP
- study-conditions: human, HepG2-A16-CD81EGFP cells; read-out: INHIBITION
Answers are plain numbers, in %.

O=C(NCC(O)c1cccc(O)c1)C1CCN(C2CCCCC2)CC1 (stereo unspecified); 7.16
COc1cccn(CC(=O)N(C)Cc2ccoc2)c1=O; -9.93
COc1ccc(-c2ccncc2)cc1CNC1CCCC1; -47.7
NC(=O)Cn1cc(NC(=O)N2CCN(c3ccc(F)cc3)CC2)cn1; -12.9
CCC1c2ccccc2CCN1C(=O)c1ccnc(C(=O)OC)c1 (stereo unspecified); -2.72

Input: What measured cytotoxicity at 10 µM goes with CCc1nc(C)c(C(=O)N2CCCN(Cc3cnn(C)c3)CC2)s1 ?
Output: -2.41

---

- assay-details: Toxicity liver stage against HepG2, at 10uM
- Assay type: cell-based
- Design: test concentration 10 uM, cell line HepG2-A16-CD81EGFP
- study-conditions: human, HepG2-A16-CD81EGFP cells; read-out: INHIBITION
Give cytotoxicity at 10 µM for every item shown.
Numbers only, in %.

Example entries begin here.
CN(C)c1cc(CNC(=O)Nc2ccc(S(C)(=O)=O)nc2)ccn1; 0.71
CSC(C)CCN(Cc1ccccn1)Cc1sccc1C (stereo not drawn); -2.49
CN(c1ccncn1)C1CC2(CCN(C(=O)c3cccs3)C2)C1 (stereo not drawn); -5.05
CS(=O)(=O)N1CCCC(Cc2cnc(Br)cn2)C1 (stereo not drawn); 17.3
CN1C(=O)CO[C@H]2CCN(C(=O)Cc3ccc4c(c3)CCCC4)CC[C@@H]21; 4.45
CCN1CCN(C2CCN(Cc3nnc(C(C)C)o3)CC2)C1=O; -0.677
O=C(O)c1ccc(S(=O)(=O)Nc2cccc(CC(F)(F)F)c2)c(F)c1; -6.19
Cc1cc(C)n(CC2CCCCN2CC(=O)Nc2nccs2)n1 (stereo not drawn); 10.1

Provide each entry's cytotoxicity at 10 µM from the list below.
1. OCC(CO)Nc1ccc2c(Cl)ccc(Cl)c2n1
2. Cc1cnc(C(=O)N2CC(=O)N(c3ccccc3Cl)CC2C)cn1 (stereo not drawn)
3. Cn1cc(Br)cc(NC(=O)CC(C)(C)C)c1=O
4. O=C(NCCc1ccn(-c2ccccc2)n1)N1CCCC(CO)C1 (stereo not drawn)

Output:
-3.04
-8.23
5.82
-23.1

Provide each entry's cytotoxicity at 10 µM from the list below.
1. Cc1csc(NC(=O)CN(C)CC2CCCN2c2cccnn2)n1 (stereo not drawn)
2. c1ccc(CN2CCC3(CC2)CC(Oc2cccnc2)C3)nc1
3. CCN(C)CC(=O)N1CCCC(c2nnc(CN3CCOCC3)n2C)C1 (stereo not drawn)
4. NC(=O)C1CCN(CCc2ccc(NC(=O)C3CC3)cc2)CC1
5. Cn1nccc1C(=O)N1C[C@@H]2CC[C@H](Oc3cccc(F)c3)[C@@H]2C1
6. COCCN1C(=O)[C@@H]2CC[C@H]1CN(C(=O)COc1ccc(F)c(Cl)c1)C2
7. CN1CCCCC(C2CCN(S(=O)(=O)c3cn(C)cn3)CC2)C1=O (stereo not drawn)

Output:
1: -5.82; 2: -111; 3: -8.28; 4: -7.72; 5: -13.8; 6: -0.447; 7: 3.13

Provide each entry's cytotoxicity at 10 µM from the list below.
1. O=C(C(c1ccc(F)cc1)N1CCCCC1)N1CCn2cncc2C1 (stereo not drawn)
2. N#Cc1ccc(N2CCCN(CC(=O)N3CCNC(=O)C3)CC2)cc1
3. CC(C)n1nnc(CC(=O)NCC2(c3ccccc3F)CCCC2)n1
4. CS(=O)(=O)N1CC[C@@H]2[C@@H](CCC(=O)N2CCC2=CCCCC2)C1

Output:
-0.628
5.27
-0.325
-5.64

---

Give cytotoxicity at 10 µM for every item shown.
- assay-details: Toxicity liver stage against HepG2, at 10uM
- Assay type: cell-based
- Design: test concentration 10 uM, cell line HepG2-A16-CD81EGFP
- study-conditions: human, HepG2-A16-CD81EGFP cells; read-out: INHIBITION
Numbers only, in %.

COCCN1CCN(Cc2ccc(C(C)=O)cc2)[C@H]2CS(=O)(=O)C[C@H]21; -0.571

Provide each entry's cytotoxicity at 10 µM from the list below.
1. N#Cc1cc(NC(=O)c2cscn2)ccc1N1CCC(O)CC1
2. CCC[C@@H]1CN(C(=O)c2c(F)ccc(C)c2Cl)C[C@H]1C(=O)O
3. Cc1nccn1-c1cc(CNC(=O)C2CCC(=O)NC2)ccn1 (stereo not drawn)
4. Cc1noc(OCc2ccc(C#N)cc2)n1
5. O=S(=O)(CCNC1CCc2ncnn2C1)c1ccc(Cl)cc1 (stereo not drawn)
6. CC(C)C(=O)N1CCN(c2ncnc3cc4c(cc23)OCCO4)CC1
7. CN1[C@@H]2CC[C@H]1CN(C(=O)c1ccc(-c3ccccc3)[nH]1)CC2

Output:
6.59
-4.39
4.83
-10.2
-32.2
2.41
-0.372

Provide each entry's cytotoxicity at 10 µM from the list below.
1. COc1ccccc1CN(C)c1nc2c(cnn2C)c(=O)[nH]1
2. COc1ccc(NC(=O)CNc2cccc3c2CCCC3)c(OC)c1
3. COC(=O)C(O)C1CCN(CCc2ccncc2)CC1 (stereo not drawn)
4. CNC(=O)c1nc(COc2ccc3c(c2)OCO3)no1
5. Cc1cc(CN2CC[C@H]3C[C@H](C)O[C@@H]3C2)no1

Output:
40.6
16.5
11.8
2.03
-1.42

Provide each entry's cytotoxicity at 10 µM from the list below.
1. Cc1cnc(N2CCC3(C2)CN(S(=O)(=O)C2CC2)C3)nc1
2. CCC(C(=O)NCc1cc(N2CCOCC2)ncn1)n1cccn1 (stereo not drawn)
3. CCc1ccc(C(=O)O)cc1S(=O)(=O)Nc1ccc(=O)n(C)c1

Output:
1: -106; 2: 1.44; 3: 11.7
